test.target: T1, recombinant human Angiopoietin-2 (human, UniProt O15123 19-496)
T1 construct: also called Ang-2; rhAng-2
T1 sequence: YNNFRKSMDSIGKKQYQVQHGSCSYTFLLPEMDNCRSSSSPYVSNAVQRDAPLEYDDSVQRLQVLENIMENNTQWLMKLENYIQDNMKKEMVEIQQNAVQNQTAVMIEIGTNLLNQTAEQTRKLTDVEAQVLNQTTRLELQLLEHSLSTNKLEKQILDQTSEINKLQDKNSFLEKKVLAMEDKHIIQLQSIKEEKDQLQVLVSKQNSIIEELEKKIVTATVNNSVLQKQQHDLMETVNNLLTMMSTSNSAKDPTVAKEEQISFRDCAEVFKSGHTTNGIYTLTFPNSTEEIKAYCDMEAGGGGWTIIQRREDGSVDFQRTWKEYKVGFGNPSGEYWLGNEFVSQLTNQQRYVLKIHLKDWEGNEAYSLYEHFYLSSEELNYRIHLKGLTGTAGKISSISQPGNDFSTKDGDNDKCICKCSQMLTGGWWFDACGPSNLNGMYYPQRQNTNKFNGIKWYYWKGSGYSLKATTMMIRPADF
run.description: competition ELISA, Ang-2 on coated Tie2/Fc
readout.type: Efficacy (ratio of bound Ang-2 with mAbs (30 µg/ml) versus without mAbs)
No unit in the answer, only the number.

mAb 3.3.2 (antibody, V domains shown, Variable regions only; hybridoma-derived fully human IgG kappa; also called 3.3.1; x3.3) VH: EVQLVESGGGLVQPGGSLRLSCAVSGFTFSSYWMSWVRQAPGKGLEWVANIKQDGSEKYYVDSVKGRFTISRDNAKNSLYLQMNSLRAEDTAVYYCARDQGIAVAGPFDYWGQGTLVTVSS VL: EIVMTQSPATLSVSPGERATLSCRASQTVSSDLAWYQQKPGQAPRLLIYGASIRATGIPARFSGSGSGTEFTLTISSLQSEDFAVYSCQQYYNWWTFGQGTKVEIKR    0.388

# query: Efficacy (ratio of bound Ang-2 with mAbs (30 µg/ml) versus without mAbs) of entry mAb 5.86.1 (antibody, V domains shown, Variable regions only; hybridoma-derived fully human IgG kappa; also called x5.86) VH: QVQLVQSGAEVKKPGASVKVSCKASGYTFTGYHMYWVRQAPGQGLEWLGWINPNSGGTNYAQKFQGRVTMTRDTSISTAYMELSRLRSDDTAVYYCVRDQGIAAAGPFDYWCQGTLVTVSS VL: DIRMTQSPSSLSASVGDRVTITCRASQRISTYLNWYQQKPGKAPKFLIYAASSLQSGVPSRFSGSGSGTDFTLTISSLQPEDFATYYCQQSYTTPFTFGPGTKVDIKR
0.384

Input mAb 3.31.2 (antibody, V domains shown, Variable regions only; hybridoma-derived fully human IgG kappa; also called x3.31*) VH: EVQLVESGGGLVQPGGSLRLSCAASGFTFSSYWMSWVRQAPGKGLEWVANIKQDGSDKYYVDSVKGRFTISRDNAKNSLYLRMNSLRAEDTAVFYCARDMGSGWFDYWGQGTLVTVSS VL: EVVMTQSPATLSVSPGERATLSCRASQSVGSNLAWYQQKPGQAPRLLIYGASTRATGIPARFSGSGSGTEFTLTISSLQSEDFAVYCCQQYNHWWTFGQGTKVEIKR
0.375

Input mAb 5.88.3 (antibody, V domains shown, Variable regions only; hybridoma-derived fully human IgG kappa; also called x5.88*) VH: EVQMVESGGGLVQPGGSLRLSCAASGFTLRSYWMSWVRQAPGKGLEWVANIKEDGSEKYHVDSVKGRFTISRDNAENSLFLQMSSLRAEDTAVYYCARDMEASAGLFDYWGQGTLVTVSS VL: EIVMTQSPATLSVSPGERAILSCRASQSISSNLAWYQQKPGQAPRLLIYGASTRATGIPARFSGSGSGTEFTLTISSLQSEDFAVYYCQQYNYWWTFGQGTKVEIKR
0.403

Input mAb 5.28.1 (antibody, V domains shown, Variable regions only; hybridoma-derived fully human IgG kappa; also called x5.28) VH: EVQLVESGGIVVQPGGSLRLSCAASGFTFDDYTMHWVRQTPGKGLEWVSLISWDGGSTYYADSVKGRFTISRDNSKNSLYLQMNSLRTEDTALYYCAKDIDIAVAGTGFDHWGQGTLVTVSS VL: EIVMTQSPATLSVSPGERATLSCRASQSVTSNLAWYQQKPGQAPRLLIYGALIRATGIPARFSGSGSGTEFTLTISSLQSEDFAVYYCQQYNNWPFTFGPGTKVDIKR
0.389

Input mAb 3.19.3 (antibody, V domains shown, Variable regions only; hybridoma-derived fully human IgG kappa; also called x3.19) VH: QVQLVESGGGVVQPGRSLRLSCAASGFTFTNYGMHWGRQAPGKGLEWVAVISHDGNNKYYVDSVKGRFTISRDNSKNTLYLQMNSLRAEDTAVYYCAREGIDFWSGLNWFDPWGQGTLVTVSS VL: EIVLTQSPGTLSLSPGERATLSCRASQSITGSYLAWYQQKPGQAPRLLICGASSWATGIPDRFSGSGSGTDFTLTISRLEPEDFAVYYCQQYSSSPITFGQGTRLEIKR
0.395
